biological target: Microsomal triglyceride transfer protein large subunit (Homo sapiens, UniProt P55157); assay: In vitro inhibitory activity against MTP using MTP transfer assay
Sequence (P55157 whole entry): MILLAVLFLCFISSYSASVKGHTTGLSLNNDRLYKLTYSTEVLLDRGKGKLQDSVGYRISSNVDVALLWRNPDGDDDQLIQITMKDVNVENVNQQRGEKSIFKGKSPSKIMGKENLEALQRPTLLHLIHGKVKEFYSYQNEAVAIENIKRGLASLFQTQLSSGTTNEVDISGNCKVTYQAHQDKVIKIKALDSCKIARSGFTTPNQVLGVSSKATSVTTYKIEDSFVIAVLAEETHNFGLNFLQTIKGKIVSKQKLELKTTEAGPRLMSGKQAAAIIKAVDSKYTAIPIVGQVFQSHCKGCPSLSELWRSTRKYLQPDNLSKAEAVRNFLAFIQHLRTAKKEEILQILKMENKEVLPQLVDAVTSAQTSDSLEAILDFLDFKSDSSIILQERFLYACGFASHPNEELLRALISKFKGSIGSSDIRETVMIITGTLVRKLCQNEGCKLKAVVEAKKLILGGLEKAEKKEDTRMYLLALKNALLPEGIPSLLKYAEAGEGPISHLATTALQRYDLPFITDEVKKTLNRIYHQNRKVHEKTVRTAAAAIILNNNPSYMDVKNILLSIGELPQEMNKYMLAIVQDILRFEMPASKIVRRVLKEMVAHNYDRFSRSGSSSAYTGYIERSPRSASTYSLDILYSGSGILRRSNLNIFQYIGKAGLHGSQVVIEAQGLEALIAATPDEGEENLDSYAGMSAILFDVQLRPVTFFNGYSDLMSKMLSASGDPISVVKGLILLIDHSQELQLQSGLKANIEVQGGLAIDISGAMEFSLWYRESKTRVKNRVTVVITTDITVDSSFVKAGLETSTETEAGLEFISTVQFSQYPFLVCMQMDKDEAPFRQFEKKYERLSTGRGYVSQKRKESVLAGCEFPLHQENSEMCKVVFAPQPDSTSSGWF
PARAMETER MEASURED: IC50 (nM)

What value of measured IC50 is listed for COC(=O)NCC1Cc2ccc(NC(=O)c3cc(C)cc(C)c3-c3ccc(C(F)(F)F)cc3)cc2C1 (configuration not stated) ?
40

What value of measured IC50 is listed for COC(=O)NC1CCc2ccc(NC(=O)c3cc(C)cc(C)c3-c3ccc(C(F)(F)F)cc3)cc2CC1 (configuration not stated) ?
20

What value of measured IC50 is listed for COC(=O)N[C@H]1Cc2ccc(NC(=O)c3cccc(C)c3-c3ccc(C(F)(F)F)cc3)cc2C1 ?
70

[A] O=C(Nc1ccc2c(c1)C[C@@H](NS(=O)(=O)c1ccccc1)C2)c1ccccc1-c1ccc(C(F)(F)F)cc1
[B] COC(=O)NCC1Cc2ccc(NC(=O)c3cccc(C)c3-c3ccc(C(F)(F)F)cc3)cc2C1 (configuration not stated)
Looking at A and B , which one comes out lower in IC50 terms? Identify your selection by its label.
B
(B: 24 nM, A: 650 nM)

[1] Cc1cccc(C(=O)Nc2ccc3c(c2)CC(NS(=O)(=O)c2ccccc2)C3)c1-c1ccc(F)cc1 (configuration not stated)
[2] Cc1cccc(C(=O)Nc2ccc3c(c2)CCC(NS(C)(=O)=O)CC3)c1-c1ccc(Cl)cc1 (configuration not stated)
[3] COC(=O)NC1CCc2ccc(NC(=O)c3cccc(C)c3-c3ccc(C(F)(F)F)cc3)cc2CC1 (configuration not stated)
[4] O=C(Nc1ccc2c(c1)CC(NS(=O)(=O)c1ccccc1)C2)c1ccccc1-c1ccccc1 (configuration not stated)
Please rank these compounds by IC50 in descending order. Output spec: labels arranged per the requested ranking.
4, 1, 2, 3
(4: 710 nM, 1: 240 nM, 2: 90 nM, 3: 20 nM)

[1] COC(=O)N[C@@H]1Cc2ccc(NC(=O)c3cccc(C)c3-c3ccc(C(F)(F)F)cc3)cc2C1
[2] COC(=O)NCC1Cc2ccc(NC(=O)c3cccc(C)c3-c3ccc(Cl)cc3)cc2C1 (configuration not stated)
Looking at 1 and 2 , which one comes out lower in IC50 terms? Identify your selection by its label.
1

[1] Cc1cc(C)c(-c2ccc(C(F)(F)F)cc2)c(C(=O)Nc2ccc3c(c2)C[C@@H](NS(=O)(=O)c2cccs2)C3)c1
[2] Cc1cccc(C(=O)Nc2ccc3c(c2)CC(NS(=O)(=O)c2ccccc2)C3)c1-c1ccc(Cl)cc1 (configuration not stated)
[3] COC(=O)N[C@H]1Cc2ccc(NC(=O)c3cc(C)cc(C)c3-c3ccc(C(F)(F)F)cc3)cc2C1
Please rank these compounds by IC50 in descending order. Output spec: labels arranged per the requested ranking.
1, 2, 3
